Provenance of the data: patent US20140065163A1

target: human GM-CSF T117 (human, UniProt P04141 18-144); experiment: cell-based or functional assay
Sequence (P04141 18-144 I117T limits assumed): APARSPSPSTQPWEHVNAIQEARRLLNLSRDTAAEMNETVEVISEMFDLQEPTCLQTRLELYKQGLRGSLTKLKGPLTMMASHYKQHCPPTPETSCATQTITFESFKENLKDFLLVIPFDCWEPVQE
Measured Parameter: Fold improvement of 4K21 H93Y alone on T117 (IC50, TF-1 proliferation) (fold)
One number for each entry, in fold.

Use these answered entries as a reference point.
humanized parental anti-GM-CSF 4K21 VH3-07.1AL+VK2-A3.2 hIgG1K antibody (MSB0010439) (antibody, V domains shown, Human IgG1 kappa; also called humanized parental 4K21 hVH hVL; parental 4K21) VH: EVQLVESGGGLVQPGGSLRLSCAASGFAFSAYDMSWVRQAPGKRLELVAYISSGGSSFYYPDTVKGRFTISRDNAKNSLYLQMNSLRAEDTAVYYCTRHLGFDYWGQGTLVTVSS VL: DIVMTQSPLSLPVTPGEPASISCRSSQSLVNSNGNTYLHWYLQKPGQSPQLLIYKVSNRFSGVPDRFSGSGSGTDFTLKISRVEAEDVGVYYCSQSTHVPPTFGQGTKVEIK; 0.1
MSB0010601 4K21 (4K21 hVH S55K-T62S hVL N28I-H34S-N53R-H93Y) (antibody, V domains shown, IgG; also called optimized 4K21 antibody) VH: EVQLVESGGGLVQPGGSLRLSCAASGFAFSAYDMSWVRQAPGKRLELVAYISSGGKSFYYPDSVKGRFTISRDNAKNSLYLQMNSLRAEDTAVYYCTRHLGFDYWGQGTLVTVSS VL: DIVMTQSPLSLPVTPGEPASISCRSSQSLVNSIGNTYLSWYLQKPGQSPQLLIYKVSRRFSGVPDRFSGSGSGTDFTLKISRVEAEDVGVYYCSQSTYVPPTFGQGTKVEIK; 8.3
MSB0010599 4K21 (4K21 hVH S55R-T62S hVL N28I-H34S-N53R-H93Y) (antibody, V domains shown, IgG) VH: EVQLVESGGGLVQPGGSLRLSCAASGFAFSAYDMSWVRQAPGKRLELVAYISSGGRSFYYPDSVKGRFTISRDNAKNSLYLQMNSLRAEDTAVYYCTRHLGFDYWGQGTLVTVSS VL: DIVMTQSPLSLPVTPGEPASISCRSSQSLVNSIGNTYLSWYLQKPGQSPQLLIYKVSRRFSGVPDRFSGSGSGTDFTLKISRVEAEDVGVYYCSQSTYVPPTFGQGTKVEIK; 9.5

Field: Fold improvement of 4K21 H93Y alone on T117 (IC50, TF-1 proliferation). Fill in for each record below.
1. humanized parental 4K21 hVH hVL + H93Y (MS100305-A) (antibody, V domains shown) VH: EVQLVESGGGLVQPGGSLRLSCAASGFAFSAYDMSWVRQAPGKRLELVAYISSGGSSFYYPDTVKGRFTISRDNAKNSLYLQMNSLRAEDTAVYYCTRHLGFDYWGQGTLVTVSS VL: DIVMTQSPLSLPVTPGEPASISCRSSQSLVNSNGNTYLHWYLQKPGQSPQLLIYKVSNRFSGVPDRFSGSGSGTDFTLKISRVEAEDVGVYYCSQSTYVPPTFGQGTKVEIK
2. MSB0010595 4K21 (4K21 hVH S56V-T62S hVL S27eY-N28I-H34S-N53R-H93Y) (antibody, V domains shown) VH: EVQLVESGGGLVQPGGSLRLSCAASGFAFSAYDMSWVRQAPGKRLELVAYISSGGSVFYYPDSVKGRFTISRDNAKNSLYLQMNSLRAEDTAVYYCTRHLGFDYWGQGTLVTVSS VL: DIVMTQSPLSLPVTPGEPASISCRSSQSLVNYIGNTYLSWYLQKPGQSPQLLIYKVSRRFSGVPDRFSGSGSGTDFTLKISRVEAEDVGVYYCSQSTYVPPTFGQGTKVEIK

## Result
1: 1; 2: 3.7
